test system: 188146-221-R-J1-PDC complex spheroid viability; test: Anticancer human tumor 188146-221-R-J1-PDC patient-derived colon adenocarcinoma cell line growth inhibition [POLQ]; details: curve of first compound; second compound 3.16 µM
measure: log10 IC50 (log10 of the value in nM)
Please interpret these as log10 of IC50 where IC50 is in nM.

Entry CC(=O)O[C@H]1C(=O)[C@@]2(C)[C@H]([C@H](OC(=O)c3ccccc3)[C@]3(O)C[C@H](OC(=O)[C@H](O)[C@@H](NC(=O)c4ccccc4)c4ccccc4)C(C)=C1C3(C)C)[C@]1(OC(C)=O)CO[C@@H]1C[C@@H]2O + Cc1cccc(N(C)C(=O)C2C(O)CCN2c2nc(C)cc(C(F)(F)F)c2C#N)c1 ; log10 IC50 = 1.00

Entry CC1COCCN1c1cc(C2(S(C)(=N)=O)CC2)nc(-c2ccnc3[nH]ccc23)n1 (stereo not given) + Nc1ccc(C#CCN(C(=O)Cc2ncc(C(F)(F)F)cc2C(F)(F)F)c2ccc(F)cc2)nn1 ; log10 IC50 = 3.67

Entry COc1cccc2c1C(=O)c1c(O)c3c(c(O)c1C2=O)CC(O)(C(=O)CO)CC3OC1CC(N)C(O)C(C)O1 (stereo not given) + Cc1cccc(N(C)C(=O)C2C(O)CCN2c2nc(C)cc(C(F)(F)F)c2C#N)c1 ; log10 IC50 = 1.99

Entry CC1COCCN1c1cc(C2(S(C)(=N)=O)CC2)nc(-c2ccnc3[nH]ccc23)n1 (stereo not given) + Cc1cccc(N(C)C(=O)C2C(O)CCN2c2nc(C)cc(C(F)(F)F)c2C#N)c1 ; log10 IC50 = 3.69

Entry CCc1c2c(nc3ccc(O)cc13)-c1cc3c(c(=O)n1C2)COC(=O)[C@]3(O)CC + Cc1cccc(N(C)C(=O)C2C(O)CCN2c2nc(C)cc(C(F)(F)F)c2C#N)c1 ; log10 IC50 = 1.34

###

tested on: 188146-221-R-J1-PDC complex spheroid viability; experiment: Anticancer human tumor 188146-221-R-J1-PDC cell line growth inhibition [POLQ]; settings: second compound 0.316 µM; first compound 0.0316 µM; stronger effect = lower value;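 also: spheroids exposed to compounds for seven days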;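 as to viability, T/C: 100% = DMSO vehicle control viability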
measure: viability, T/C

Entry C=CCn1c(=O)c2cnc(Nc3ccc(N4CCN(C)CC4)cc3)nc2n1-c1cccc(C(C)(C)O)n1 + Cc1cccc(N(C)C(=O)C2C(O)CCN2c2nc(C)cc(C(F)(F)F)c2C#N)c1 ; viability, T/C = 105%

Entry CCc1c2c(nc3ccc(O)cc13)-c1cc3c(c(=O)n1C2)COC(=O)[C@]3(O)CC + Nc1ccc(C#CCN(C(=O)Cc2ncc(C(F)(F)F)cc2C(F)(F)F)c2ccc(F)cc2)nn1 ; viability, T/C = 35.9%

Entry COc1cccc2c1C(=O)c1c(O)c3c(c(O)c1C2=O)CC(O)(C(=O)CO)CC3OC1CC(N)C(O)C(C)O1 (stereo unspecified) + Nc1ccc(C#CCN(C(=O)Cc2ncc(C(F)(F)F)cc2C(F)(F)F)c2ccc(F)cc2)nn1 ; viability, T/C = 67.8%

Entry CC1COCCN1c1cc(C2(O)CC3CCC(C2)O3)c2cnn(-c3ccn[nH]3)c2n1 (stereo unspecified) + COC1C(OC(N)=O)C(O)C(Oc2ccc3c(O)c(NC(=O)c4ccc(O)c(CC=C(C)C)c4)c(=O)oc3c2C)OC1(C)C ; viability, T/C = 94.7%

Entry CCc1c2c(nc3ccc(O)cc13)-c1cc3c(c(=O)n1C2)COC(=O)[C@]3(O)CC + Cc1cccc(N(C)C(=O)C2C(O)CCN2c2nc(C)cc(C(F)(F)F)c2C#N)c1 ; viability, T/C = 38.2%

Entry Nc1ccn(C2OC(CO)C(O)C2(F)F)c(=O)n1 (stereo unspecified) + Nc1ccc(C#CCN(C(=O)Cc2ncc(C(F)(F)F)cc2C(F)(F)F)c2ccc(F)cc2)nn1 ; viability, T/C = 32.9%

Entry C#Cc1c(F)ccc2cc(O)cc(-c3ncc4c(N5CC6CCC(C5)N6)nc(OCC56CCCN5CC(F)C6)nc4c3F)c12 (stereo unspecified) + Cc1cccc(N(C)C(=O)C2C(O)CCN2c2nc(C)cc(C(F)(F)F)c2C#N)c1 ; viability, T/C = 108%

Entry CC1COCCN1c1cc(-c2ccnn2C)c2ccnc(-c3ccn[nH]3)c2n1 (stereo unspecified) + Cc1cccc(N(C)C(=O)C2C(O)CCN2c2nc(C)cc(C(F)(F)F)c2C#N)c1 ; viability, T/C = 92.9%

Entry Cn1ncnc1[C@H]1c2n[nH]c(=O)c3cc(F)cc(c23)N[C@@H]1c1ccc(F)cc1 + Cc1cccc(N(C)C(=O)C2C(O)CCN2c2nc(C)cc(C(F)(F)F)c2C#N)c1 ; viability, T/C = 90.8%

Entry CCCS(=O)(=O)Nc1ccc(F)c(C(=O)c2c[nH]c3ncc(-c4ccc(Cl)cc4)cc23)c1F + Cc1cccc(N(C)C(=O)C2C(O)CCN2c2nc(C)cc(C(F)(F)F)c2C#N)c1 ; viability, T/C = 116%

Entry COc1cc(C2c3cc4c(cc3C(OC3OC5COC(C)OC5C(O)C3O)C3COC(=O)C23)OCO4)cc(OC)c1O (stereo unspecified) + Cc1cccc(N(C)C(=O)C2C(O)CCN2c2nc(C)cc(C(F)(F)F)c2C#N)c1 ; viability, T/C = 108%

Entry CCc1cc2c(N3CCc4c(cc(Cn5ccnc5)cc4-c4cn(C)nc4C(F)(F)F)C3=O)cc(C)nc2c(OC)n1 + Cc1cccc(N(C)C(=O)C2C(O)CCN2c2nc(C)cc(C(F)(F)F)c2C#N)c1 ; viability, T/C = 112%

Entry O=C(c1cc(Cc2n[nH]c(=O)c3ccccc23)ccc1F)N1CCN(C(=O)C2CC2)CC1 + Nc1ccc(C#CCN(C(=O)Cc2ncc(C(F)(F)F)cc2C(F)(F)F)c2ccc(F)cc2)nn1 ; viability, T/C = 116%

Entry CNCc1ccc(-c2[nH]c3cc(F)cc4c3c2CCNC4=O)cc1 + COC1C(OC(N)=O)C(O)C(Oc2ccc3c(O)c(NC(=O)c4ccc(O)c(CC=C(C)C)c4)c(=O)oc3c2C)OC1(C)C ; viability, T/C = 106%

Entry O=c1[nH]cc(F)c(=O)[nH]1 + Cc1cccc(N(C)C(=O)C2C(O)CCN2c2nc(C)cc(C(F)(F)F)c2C#N)c1 ; viability, T/C = 93%

Entry CC1COCCN1c1cc(C2(S(C)(=N)=O)CC2)nc(-c2ccnc3[nH]ccc23)n1 (stereo unspecified) + Cc1cccc(N(C)C(=O)C2C(O)CCN2c2nc(C)cc(C(F)(F)F)c2C#N)c1 ; viability, T/C = 98.4%

Entry CCc1cc2c(N3CCc4c(cc(Cn5ccnc5)cc4-c4cn(C)nc4C(F)(F)F)C3=O)ccnc2c(OC)n1 + COC1C(OC(N)=O)C(O)C(Oc2ccc3c(O)c(NC(=O)c4ccc(O)c(CC=C(C)C)c4)c(=O)oc3c2C)OC1(C)C ; viability, T/C = 103%

Entry CC(C)n1c(=O)n(C)c2cnc3cc(F)c(-c4ccc(OCCCN5CCCCC5)nc4)cc3c21 + Cc1cccc(N(C)C(=O)C2C(O)CCN2c2nc(C)cc(C(F)(F)F)c2C#N)c1 ; viability, T/C = 108%

Entry COc1cccc2c1C(=O)c1c(O)c3c(c(O)c1C2=O)CC(O)(C(=O)CO)CC3OC1CC(N)C(O)C(C)O1 (stereo unspecified) + COC1C(OC(N)=O)C(O)C(Oc2ccc3c(O)c(NC(=O)c4ccc(O)c(CC=C(C)C)c4)c(=O)oc3c2C)OC1(C)C ; viability, T/C = 92.7%

Entry CCCS(=O)(=O)Nc1ccc(F)c(C(=O)c2c[nH]c3ncc(-c4ccc(Cl)cc4)cc23)c1F + Nc1ccc(C#CCN(C(=O)Cc2ncc(C(F)(F)F)cc2C(F)(F)F)c2ccc(F)cc2)nn1 ; viability, T/C = 94.4%

Entry O=C(c1cc(Cc2n[nH]c(=O)c3ccccc23)ccc1F)N1CCN(C(=O)C2CC2)CC1 + COC1C(OC(N)=O)C(O)C(Oc2ccc3c(O)c(NC(=O)c4ccc(O)c(CC=C(C)C)c4)c(=O)oc3c2C)OC1(C)C ; viability, T/C = 108%

###

test system: 188146-221-R-J1-PDC complex spheroid viability; experiment: Anticancer human tumor 188146-221-R-J1-PDC cell line growth inhibition [POLQ]; details: curve of first compound; second compound 3.16 µM;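 also: spheroids exposed to compounds for seven days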
Consider the following compounds; for each one, report its pIC50.
Field pIC50 (float): negative decimal logarithm of the concentration in molar.

Entry O=c1[nH]cc(F)c(=O)[nH]1 + Nc1ccc(C#CCN(C(=O)Cc2ncc(C(F)(F)F)cc2C(F)(F)F)c2ccc(F)cc2)nn1 ; pIC50 = 5.79

Entry COc1ccc([C@@H](O)c2cc(-c3ncnc4cc(N5CCOCC5)ccc34)c(F)cc2Cl)nn1 + Cc1cccc(N(C)C(=O)C2C(O)CCN2c2nc(C)cc(C(F)(F)F)c2C#N)c1 ; pIC50 = 5.31
